Attribution: PubChem BioAssay (NCI)

# EXPERIMENT_NOTES: NCI Yeast Anticancer Drug Screen. Data for the sgs1 mgt1 strain (AID 161);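 further: 0% = growth of cultures given vehicle only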
# MEASUREMENT_SETUP: S. cerevisiae sgs1 mgt1 strain, at 50.0 µM, active compounds read high
Compounds without any hit were thinned out: in the full panel of roughly 79,000, 15% have a hit.
MEASURE: growth inhibition (%)
The figure you give is taken to be in %; do not add the unit.

For record "Cc1cc(N/N=C/c2ccccn2)nc2ccccc12" the listed growth inhibition is 89.8

For record O=C(c1ccccc1)C(Br)C(Br)c1ccccc1 (configuration not stated) the listed growth inhibition is 43.2

For record "On1c(-c2ccccc2)nc2ccccc2c1=S" the listed growth inhibition is 37

For record CC(=O)C1Cc2ccccc2C1=O (configuration not stated) the listed growth inhibition is 41.1

For record "S=C1SCN(Cc2cccs2)CN1Cc1cccs1" the listed growth inhibition is 77.7

For record "Cc1cc(C(=O)c2ccc(Cl)cc2)ccc1O" the listed growth inhibition is 85.9

For record "CN(C)c1ccc(/C=C/c2cc[n+](C)c(/C=C/c3ccc(N(C)C)cc3)c2)cc1" the listed growth inhibition is 93.2

For record "O=C(Nc1ccc(Cl)c(Cl)c1)Nc1ccccc1O" the listed growth inhibition is 48.8

For record "O=[N+]([O-])c1cc(-c2ccccc2)c(O)c([N+](=O)[O-])c1" the listed growth inhibition is 85.8

For record "c1ccc(-c2cccc(-c3ccccn3)n2)nc1" the listed growth inhibition is 99.5

For record "Oc1ccc(Br)cc1Sc1cc(Br)ccc1O" the listed growth inhibition is 99.7

For record "CSc1nc(C)c(C(=O)CCN2CCN(c3ccccn3)CC2)s1" the listed growth inhibition is 66.2
